Consider the following molecules; for each one, report its pIC50.
Target: human GPR4 (Homo sapiens, UniProt P46093)
Sequence (P46093 whole entry): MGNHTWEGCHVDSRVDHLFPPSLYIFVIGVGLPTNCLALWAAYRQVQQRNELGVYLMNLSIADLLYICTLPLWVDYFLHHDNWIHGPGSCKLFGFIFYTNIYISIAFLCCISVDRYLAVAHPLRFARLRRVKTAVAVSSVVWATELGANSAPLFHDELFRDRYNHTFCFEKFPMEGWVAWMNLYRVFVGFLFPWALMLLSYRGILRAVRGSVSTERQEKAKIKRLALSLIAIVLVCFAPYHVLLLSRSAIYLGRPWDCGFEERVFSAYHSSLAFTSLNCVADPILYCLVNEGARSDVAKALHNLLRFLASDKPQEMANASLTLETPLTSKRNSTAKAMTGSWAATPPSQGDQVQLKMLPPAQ
Assay Notes: Cell-based assay for human GPR4 activity (pH-induced cAMP formation, HTRF)
Measurement Conditions: HeLa cells stably expressing human GPR4, pH-induced cAMP formation
Counter-ions that a name gives are not always drawn.
In simple prose, pIC50 is minus the logarithm base ten of a concentration in moles per litre.

Item: CCCN1CCN(CCCc2ccc(Cn3c(CC)nc4c(C)cc(C)nc43)cc2)CC1 [Example 7] Test system: human GPR4 (Homo sapiens, UniProt P46093) Read-out: pIC50 Value: ?
7.41

Form entry - test system: human GPR4 (Homo sapiens, UniProt P46093); read-out: pIC50; molecule: CCc1nc2c(C)cc(C)nc2n1Cc1ccc(/C=C/CN2CCN(CCOC)CC2)cc1 [Example 62, dihydrochloride]
6.26

Param readout= pIC50; system= human GPR4 (Homo sapiens, UniProt P46093); entry= CCc1nc2c(C)cc(C)nc2n1Cc1ccc(/C=C/CN2CCC(OC)CC2)cc1 [Example 37] ; returns value.
6.38

Report pIC50 for CCc1nc2c(C)cc(C)nc2n1Cc1ccc(/C=C/CCN2CCC(N3CCCCC3)CC2)cc1 [Example 105] tested on human GPR4 (Homo sapiens, UniProt P46093).
6.94

Hello, I am looking for reported pIC50 with human GPR4 (Homo sapiens, UniProt P46093) for CCc1nc2c(C)cc(C)nc2n1Cc1ccc(/C=C/CCn2ccnc2)cc1 [Example 109] . Could you help?
6.43

Could you share what pIC50 was measured for CCc1nc2c(C)cc(C)nc2n1Cc1ccc(CCCN2C[C@H]3C[C@@H]2CN3CC(C)C)cc1 [Example 27, dihydrochloride] , tested on human GPR4 (Homo sapiens, UniProt P46093)?
6.39

Entry CCc1nc2c(C)cc(C)nc2n1Cc1ccc(C(=O)NCCCCN2CCCC2)cc1 [Example 99] , system human GPR4 (Homo sapiens, UniProt P46093): what pIC50 was measured?
6.00

Lab note: need pIC50 for CCc1nc2c(C)cc(C)nc2n1Cc1ccc(/C=C/CN2CCN(CCCOC)CC2)cc1 [Example 64, dihydrochloride] on human GPR4 (Homo sapiens, UniProt P46093), anyone have it?
6.44

Given the entry CCCCc1nc2c(C)cc(C)nc2n1Cc1ccc(/C=C/CN2CCC(N3CCCCC3)CC2)cc1 [Example 86, dihydrochloride] , what pIC50 was observed with human GPR4 (Homo sapiens, UniProt P46093)?
6.32

Look up pIC50 with human GPR4 (Homo sapiens, UniProt P46093) for this molecule: CCc1nc2c(C)cc(C)nc2n1Cc1ccc(/C=C/CN2CCN(C)C[C@@H]2C(C)C)cc1 [Example 70, dihydrochloride]
6.30

State its pIC50 on human GPR4 (Homo sapiens, UniProt P46093): CCc1nc2c(C)cc(C)nc2n1Cc1ccc(CCN2CCC(N3CCCCC3)CC2)cc1 [Example 5]
6.64
